B1: ESRRA (parent)
chain: SLPLQDELAFAEDLVLDEEGARAA

# Variants of: B1
# PROTOCOL_NOTES: protein stability index of a GFP-peptide fusion (GPS, HEK-293T) (PSI 1-6); higher = more stable;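 also: lentivirally expressed fusions sorted by FACS into six bins by GFP to DsRed ratio, PSI derived from sequencing read proportions per bin multiplied by bin number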
# CONDITION_PARAMETERS: c terminus: a fixed tail appended
Record true (1) whenever protein stability index is at 4 or higher; record false (0) when lower.

Worked examples follow.
SLPLQDELAFAEDLVLMEEGARAA [D17M]; false (0)
SLPLQDELAFAEDLVLDEEGAPAA [R22P]; false (0)
SLPLQDELAFADDLVLDEEGARAA [E12D]; true (1)
SLPLQDELAFYEDLVLDEEGARAA [A11Y]; true (1)
SLPLQDELAFAEDLVSDEEGARAA [L16S]; true (1)

Please look at the following variant next.
Request: Test whether the variant DLPLQDELAFAEDLVLDEEGARAA [S1D] records protein stability index of 4 or higher.
Response: false (0)
